- Target or test system: ER (Homo sapiens, UniProt P03372)
- Construct: endogenous in cells; probably T47D or MCF-7
- Test name: In-cell western blot analysis, relative ER percentage (compounds B1-B126)
- Format: cell-based
- Setup conditions: ER degradation, 16 hours, read-out: ICW DC50
Can you tell me DC50 for the items I'm about to list?

-- ask State the recorded DC50 for this entry: C[C@@H]1Cc2c(ccc3[nH]ncc23)[C@@H](c2c(F)cc(N3CCC4(CC3)CN(C(=O)CN3CCN5c6cc7c(cc6OC[C@@H]5C3)C(=O)N(C3CCC(=O)NC3=O)C7)C4)cc2F)N1CC(F)F (stereo partly drawn)
-- reply < 0.01 µM

-- ask State the recorded DC50 for this entry: C[C@@H]1Cc2c(ccc3[nH]ncc23)[C@@H](c2ccc(N3CCC4(CC3)CC(CN3CCN5c6ccc7c(c6OC[C@H]5C3)CN(C3CCC(=O)NC3=O)C7=O)C4)cn2)N1CC(F)(F)F (stereo partly drawn)
-- reply < 0.01 µM

-- ask State the recorded DC50 for this entry: C[C@@H]1Cc2c(ccc3[nH]ncc23)[C@@H](c2ccc(N3CCC4(CC3)CN(C(=O)CN3CCC5(CC3)COc3c5ccc5c3CN(C3CCC(=O)NC3=O)C5=O)C4)cn2)N1CC(F)(F)F (stereo partly drawn)
-- reply < 0.01 µM
